tested system: Recombinant human IL-1β (BioLegend 579404) (human, UniProt P01584 117-269)
procedure details: cell-based or functional assay
Starred links: 1 amine or outer side, 2 acyl side, 3 side chain; linkers in the order of their positions; H or OH if unused. Non-standard residues stand in square brackets, D forms with d. Bip4CONMe2 = (2S)-2-amino-3-[4-[4-(dimethylcarbamoyl)phenyl]phenyl]propanoic acid, CN(C)C(=O)c1ccc(-c2ccc(C[C@H](N[*:1])C(=O)[*:2])cc2)cc1; Phe3Cl4COOH = (S)-4-(2-amino-2-carboxyethyl)-2-chlorobenzoic acid, O=C([C@H](Cc1ccc(C(=O)[*:3])c(Cl)c1)N[*:1])[*:2]; SbOH4Pal = (2S,3S)-2-amino-3-hydroxy-3-(4-pyridyl)propanoic acid, O=C([C@@H](N[*:1])[C@@H](O[*:3])c1ccncc1)[*:2]; Phe(4-(5-CO2H-2-pyrimidyl)) = N[C@@H](Cc1ccc(-c2ncc(C(=O)O)cn2)cc1)C(=O)O; dPro(4R-(4-pyridylmethyl)) = O=C(O)[C@H]1C[C@@H](Cc2ccncc2)CN1; Trp(βS-Me,4-F) = C[C@@H](c1c[nH]c2cccc(F)c12)[C@H](N)C(=O)O; Bip(4'-COOH) = N[C@@H](Cc1ccc(-c2ccc(C(=O)O)cc2)cc1)C(=O)O; Ala(1-bicyclo(1.1.1)pentyl) = N[C@@H](CC12CC(C1)C2)C(=O)O; dPro(4R-Bzl(4-F)) = O=C(O)[C@H]1C[C@@H](Cc2ccc(F)cc2)CN1; Ala(pyrimidin-5-yl) = N[C@@H](Cc1cncnc1)C(=O)O; Phe(4-COOH) = N[C@@H](Cc1ccc(C(=O)O)cc1)C(=O)O; Pro(cis-4-F) = O=C(O)[C@@H]1C[C@H](F)CN1; Ala(4-THP) = N[C@@H](CC1CCOCC1)C(=O)O; d(αMeD) = C[C@@](N)(CC(=O)O)C(=O)O; 4Pal = N[C@@H](Cc1ccncc1)C(=O)O; Dab = NCC[C@H](N)C(=O)O; Aib = CC(C)(N)C(=O)O
parameter: MRC5 IC50 (nM)
Please state the figure in nM; there is no need to write the unit.

Query :: For cyclo([Phe(4-(5-CO2H-2-pyrimidyl))][4Pal][Phe3Cl4COOH]G[Pro(cis-4-F)][Trp(βS-Me,4-F)][Aib]SW[d(αMeD)][Ala(4-THP)]Q[Dab]G[dPro(4R-(4-pyridylmethyl))]) (ring closure inferred) [SEQ ID NO 361] , write its MRC5 IC50.
Result :: 0.022

Query :: For cyclo([Bip4CONMe2][Ala(1-bicyclo(1.1.1)pentyl)][Phe(4-COOH)]G[Pro(cis-4-F)][Trp(βS-Me,4-F)][Aib]SW[d(αMeD)][Ala(pyrimidin-5-yl)]Q[Dab]G[dPro(4R-(4-pyridylmethyl))]) (ring closure inferred) [SEQ ID NO 341] , write its MRC5 IC50.
Result :: 0.024

Query :: For cyclo([Bip(4'-COOH)][4Pal][Phe(4-COOH)]G[Pro(cis-4-F)][Trp(βS-Me,4-F)][Aib]SW[Aib][SbOH4Pal]Q[Dab]G[dPro(4R-Bzl(4-F))]) (ring closure inferred) [SEQ ID NO 272] , write its MRC5 IC50.
Result :: 0.018

Values were extracted from patent US20260242419A1.
